System: G. duodenalis BRIS/91/HEPU/1279
Test description: Primary Giardia screen at 10 µM (live-cell imaging, automated counting)
Type: cell-based, Giardia duodenalis
Condition summary: 48 h, first singlicate assay
Checkbox rule: % Inhibition n=1 48h lower than 10% = y; % Inhibition n=1 48h not lower than 10% = n.

Cc1cccc(CN2CCC3(CC2)N=C(c2ccc(C)c(C)c2)C(=O)N3)c1 [SN00792562] ... n
Cc1cccc(NC(=O)N2CCN(c3cc(C)nc(N4CCCC4)n3)CC2)c1 [SN00786874] ... n
COc1ccc(CN2CCC3(CC2)N=C(c2ccc(C)cc2)C(=O)N3)cc1 [SN00792212] ... n
COc1ccc(S(=O)(=O)N2CCN(Cc3ccc(C)cc3)c3ncccc32)cc1 [SN00790428] ... n
CNC(=O)N1CCC(C2CCN(C(=O)c3ccncc3)CC2)C1 (stereo not drawn) [SN00801593] ... y
CCC1c2ccsc2CCN1C(=O)C1CCN(S(=O)(=O)c2ccc(Cl)c([N+](=O)[O-])c2)CC1 (stereo not drawn) [SN00771236] ... n
CCN(CC)C(=O)c1cc(-c2cccs2)nc2cc(C)c(C)cc12 [SN00802800] ... n
Cc1ccc(S(=O)(=O)N(C)c2ccsc2C(=O)Nc2ccc(C)c(C)c2)cc1 [SN00797041] ... n
Cc1ccc(Cn2nnc3c(=O)n(Cc4nc(-c5ccccc5)no4)cnc32)cc1 [SN00790594] ... y
CCCCOC(=O)c1ccc(NC(=O)c2cc3c(=O)n(C)c(=O)n(C)c3n2CCC)cc1 [SN00772629] ... n

stdin: API: query returns whether the compound falls strictly under 10% in % Inhibition n=1 48h. Query: Cc1ccccc1C(=O)N1CCC(Cc2nnc(-c3ccccc3)o2)CC1 [SN00799218]
stdout: n

stdin: One more compound: Cc1ccc(NC(=O)c2nnc(C3CCCN3C(=O)NC3CCCC3)s2)cc1 (stereo not drawn) [SN00790483]
stdout: y

stdin: One more compound: Cc1sc(C(=O)N2CCCC2)c2ncnc(NCc3ccc(F)c(Cl)c3)c12 [SN00803192]
stdout: n

stdin: One more compound: O=C(c1cc(-c2cccnc2)[nH]n1)N1CCCC1 [SN00799309]
stdout: n

stdin: One more compound: Cn1cc(C(=O)N2CCCC2C2CCCCC2)ccc1=O (stereo not drawn) [SN00779264]
stdout: n

stdin: One more compound: Cc1nnc(-c2cc(NS(=O)(=O)c3ccc(Cl)cc3)c(C)s2)o1 [SN00798629]
stdout: y

stdin: One more compound: O=S(=O)(Cc1ccc(Cl)cc1)c1nc2ccccc2nc1N1CCC2(CC1)OCCO2 [SN00794883]
stdout: n

----------
Test system: G. duodenalis BRIS/91/HEPU/1279
Test description: Primary Giardia screen at 10 µM (live-cell imaging, automated counting)
Type: cell-based, Giardia duodenalis
Condition summary: 48 h, first singlicate assay
Note to self: values exactly at 10% are true (1). So % Inhibition n=1 48h at or above 10% is true (1), below is false (0).

Some solved cases for reference:
CCc1ccc(CNC(=O)c2cc3ccncc3n2C)cc1 ... true (1)
NC(=O)C1CCN(C(=O)c2snc(C(=O)NCc3ccccc3)c2N)CC1 ... false (0)
Cc1cc(N2CCN(c3ccccc3F)CC2)n2cnnc2n1 ... true (1)
CCc1nc(CN2CCCN(C(=O)C3CCC3)CC2)cs1 ... false (0)
CCn1cc2c(n1)-c1c(oc(C(=O)Nc3ccc(F)cc3)c1C)CC2 ... false (0)
Cc1ccc(CNC(=O)C2(S(=O)(=O)c3ccc(Cl)cc3)CC2)cc1 ... true (1)
Cc1cccc(NC(=O)NC2CCN(c3nc(C)cc(C)n3)CC2)c1 ... true (1)
O=C(c1cccc(-c2nc(-c3ccc(F)cc3)no2)c1)N1CCN(c2ccccc2)CC1 ... false (0)

stdin: Reported % Inhibition n=1 48h at or above 10%? `C/C=C/c1ccc(OCC(=O)N2CCCN(C(=O)C3CCCC3)CC2)c(OC)c1`
stdout: true (1)

----------
Tested on: G. duodenalis BRIS/91/HEPU/1279
Test description: Primary Giardia screen at 10 µM (live-cell imaging, automated counting)
Type: cell-based, Giardia duodenalis
Condition summary: 48 h, first singlicate assay
Note to self: values exactly at 2% are rule met. So % Inhibition n=1 48h at or above 2% is rule met, below is rule not met.

Cc1ccc(S(=O)(=O)Nc2cc3c(cc2NCc2ccccc2)n(C)c(=O)n3C)cc1 [SN00784759] ... rule met
CN(C)C(=O)CN1CCCN(Cc2ncc(C(C)(C)C)o2)CC1 [SN00778763] ... rule not met
Cc1noc2ncc(C(=O)N3CCN(C(C)C)CC3)cc12 [SN00779057] ... rule not met

stdin: Reported % Inhibition n=1 48h at or above 2%? Cc1ccccc1NC(=O)c1ccc2c(c1)CCN2S(C)(=O)=O [SN00785973]
stdout: rule met

stdin: One more compound: Cc1cnc(C(=O)N2CCN(C(=O)OC(C)(C)C)C(C)C2)cn1 (stereo not drawn) [SN00774718]
stdout: rule not met

stdin: One more compound: O=C(Cn1c(-c2cccnc2)noc1=O)NCC1CCCO1 (stereo not drawn) [SN00781423]
stdout: rule not met

stdin: One more compound: CCOc1ccc(-n2c(=O)c3sc4ncccc4c3n(CC(=O)N3CCCCC3)c2=O)cc1 [SN00790501]
stdout: rule met

stdin: One more compound: Cc1ccc(NC(=O)Cn2c(=O)n(Cc3ccc4c(c3)OCO4)c(=O)c3ncccc32)cc1 [SN00789565]
stdout: rule not met

stdin: One more compound: CC(C)c1csc(-c2ccc(S(=O)(=O)NCc3ccc(Cl)cc3)s2)n1 [SN00798864]
stdout: rule not met

----------
Tested on: G. duodenalis BRIS/91/HEPU/1279
Test description: Primary Giardia screen at 10 µM (live-cell imaging, automated counting)
Format: cell-based, Giardia duodenalis
Condition summary: 48 h, first singlicate assay
% Inhibition n=1 48h listing for selected compounds.
Provide a numeric answer, followed by its unit.

Worked cases, answers included:
CCc1cc(C2CCCN2C(=O)Cc2ccccc2F)on1 (stereo not shown) ... 10.7%
O=C(NCc1ccccc1Cl)[C@H]1[C@H]2C(=O)N(Cc3cccs3)C[C@]23C=C[C@H]1O3 (relative stereo) ... 22.4%
COC(=O)c1c(C(=O)OC)c(-c2ccc(NS(=O)(=O)c3ccc(C)s3)cc2)n2c1CCC2 ... 9.3%

With those in mind, consider the next compound.
stdin: What measured % Inhibition n=1 48h is associated with `O=C(c1ccccc1)N1CCN(c2cc(-c3ccc(Cl)cc3)n[nH]2)CC1` on G. duodenalis BRIS/91/HEPU/1279?
stdout: 14.4%

----------
Test system: G. duodenalis BRIS/91/HEPU/1279
Test description: Giardia dose response assay, assemblage B
Assay type: cell-based, Giardia duodenalis
Condition summary: Giardia duodenalis, 24 h, read-out: G. duodenalis IC50 24h, Table S2; 24 h; ±SD; max 10 µM
Protocol: In these assays, compounds were serially diluted (8–12-point doubling dilutions in technical duplicate) in DMSO control media, with all test wells inoculated with parasites (1.5 × 10^4 parasites for BRIS/91/HEPU/1279 and BRIS/91/HEPU/1279m1, or 3 × 10^3 parasites for BRIS/87/HEPU/713). […] Growth inhibition was calculated as a percentage relative to vehicle controls minus any background as described above and IC50 values were determined using log-linear interpolation as previously described. […]
IC50 listing for selected compounds.
The reply should be a number in µM, with the unit left off.

Cc1ccc(C(=O)Nc2ccc3c(c2)N(C)C(=O)c2ccccc2O3)cc1 ... 0.38
COc1ccc(Nc2cc(C)nc(N3CCN(C(=O)Nc4cccc(OC)c4)CC3)n2)cc1 ... 8.74
CC1CCN(C(=O)c2oc3ccccc3c2NC(=O)c2ccc([N+](=O)[O-])o2)CC1 ... 0.24

With those in mind, consider the next compound.
stdin: Recorded IC50 for `COc1c(C)cnc(Cn2cnc([N+](=O)[O-])c2)c1C` , please?
stdout: 6.8

----------
System: G. duodenalis BRIS/91/HEPU/1279
Test description: Primary Giardia screen at 10 µM (live-cell imaging, automated counting)
Format: cell-based, Giardia duodenalis
Condition summary: 48 h, first singlicate assay
% Inhibition n=1 48h listing for selected molecules.
The reply should be a number in %, with the unit left off.

Cc1oc(-c2ccco2)nc1CN1CCc2cnc(C(C)C)nc2C1 ... 0.1
Cc1ccc(-c2ncc(C(=O)NC3CCCCCC3)c(C)n2)cc1 ... 0.0
CCN(c1ccc(OC)cc1)S(=O)(=O)c1csc(C(=O)N(C)C)c1 ... 2.7
COc1ccc(Cn2c(=O)c3nccnc3n(Cc3cccc(C)c3)c2=O)cc1 ... 0.0
CCCNC(=O)c1cn(C)nc1S(=O)(=O)N1CCC(C)CC1 ... 3.5

stdin: Recorded % Inhibition n=1 48h for `COc1ccc(-c2cnc(C)o2)cc1S(=O)(=O)Nc1ccc(C)cc1` , please?
stdout: 22.0

stdin: One more molecule: Cc1cnn(CC(C)NCc2nc(-c3ccccn3)no2)c1 (stereo not drawn)
stdout: 19.9

stdin: One more molecule: `Cc1ccc(NC(=O)c2ccc(=O)n(CCN3CCOCC3)n2)cc1`
stdout: 2.3

stdin: One more molecule: `COc1ccc(N2C(=O)c3ccncc3C2=O)c(OC)c1`
stdout: 28.6

stdin: One more molecule: `O=C(NCC1CC1)c1nnn(-c2ccccc2)c1-c1ccncc1`
stdout: 0.0

stdin: One more molecule: `COc1ccc(NC(=O)c2cn(-c3ccc(-c4noc(C5CCCC5)n4)cc3)nc2C)cc1OC`
stdout: 25.5
